- ASSAYED_SYSTEM: human muscarinic M2 receptor (Homo sapiens, UniProt P08172)
- Sequence (P08172 whole entry): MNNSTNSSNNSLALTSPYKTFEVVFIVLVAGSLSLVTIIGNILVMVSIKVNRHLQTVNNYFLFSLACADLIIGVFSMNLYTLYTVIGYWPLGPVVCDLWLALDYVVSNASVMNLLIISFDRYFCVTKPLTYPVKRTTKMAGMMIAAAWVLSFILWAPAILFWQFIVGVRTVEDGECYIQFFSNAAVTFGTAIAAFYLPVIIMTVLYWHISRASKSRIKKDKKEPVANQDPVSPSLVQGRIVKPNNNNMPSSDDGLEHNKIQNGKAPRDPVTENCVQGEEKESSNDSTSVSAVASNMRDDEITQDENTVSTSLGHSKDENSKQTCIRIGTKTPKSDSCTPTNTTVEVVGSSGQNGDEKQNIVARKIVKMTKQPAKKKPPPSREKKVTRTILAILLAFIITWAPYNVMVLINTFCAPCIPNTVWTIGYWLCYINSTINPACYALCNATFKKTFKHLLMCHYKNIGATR
- ASSAY_PROCEDURE: Alphascreen Surefire phospho-ERK1/2 functional assay, M2
- Type: cell-based
- DETAILS: pEC50 M2, CHO cells stably expressing human M2; phospho-ERK1/2
pEC50: −log10 of the molar value.
READOUT: pEC50

Below: 2 molecules and their reported pEC50.
> print(dat)
                                   molecule  readout.value
1  CCOC(=O)N1C2COCC1CC(N1CCC(n3cc(C)cn3)CC1)C2 (single isomer, unassigned) [Example 1-3 Isomer 2]         < 4.70
2  CCOC(=O)N1C2COCC1CC(N1CCC(N3CCCCCC3=O)CC1)C2 (single isomer, unassigned) [Example 6-7 Isomer 2]         < 4.70

Please look at the following molecule next.
In plain terms, CCOC(=O)N1C2COCC1CC(N1CCC(N3CCCCC3=O)CC1)C2 (single isomer, unassigned) [Example 6-6 Isomer 2] has a documented pEC50 of < 4.70
